- tgt: UniProt Q14765
- testName: Competitive fluorescence polarization (FP) assay, STAT4 SH2 domain
- Assay type: binding
- conditions: FP assay; mean ± SD, n = 3
Each item that follows carries a reported log10 of IC50.
attributeMeasured: log10 of IC50 (log10 of the value in µM)

[
  {
    "compound": "O=P(O)(O)Oc1ccc(-c2ccc3ccccc3c2)cc1 [Compound 6g]",
    "observedValue": -0.02
  },
  {
    "compound": "COC(=O)c1cc(-c2ccc(C(F)(F)P(=O)(O)O)c(F)c2)cs1 [Compound 8f]",
    "observedValue": 0.97
  },
  {
    "compound": "O=P(O)(O)Oc1ccc(-c2ccccc2)cc1 [Compound 1, para‐biphenyl phosphate]",
    "observedValue": 0.36
  },
  {
    "compound": "Cn1cc(-c2ccc(C(F)(F)P(=O)(O)O)c(F)c2)cn1 [Compound 8c]",
    "observedValue": 1.18
  },
  {
    "compound": "NC(=O)c1cc(-c2ccc(C(F)(F)P(=O)(O)O)c(F)c2)cs1 [Compound 8g]",
    "observedValue": 1.38
  },
  {
    "compound": "COC(=O)c1ccccc1-c1ccc(OP(=O)(O)O)cc1 [Compound 6a]",
    "observedValue": 1.26
  },
  {
    "compound": "O=P(O)(O)C(F)(F)c1ccc(-c2csc(Cl)c2)cc1F [Compound 8i]",
    "observedValue": 1.08
  },
  {
    "compound": "O=P(O)(O)Oc1ccc(-c2ccccc2)cc1Cl [Compound 6k]",
    "observedValue": 0.85
  },
  {
    "compound": "Cc1sccc1-c1ccc(C(F)(F)P(=O)(O)O)c(F)c1 [Compound 8l]",
    "observedValue": 1.26
  }
]

###

- tgt: STAT4 (Homo sapiens, UniProt Q14765)
- Sequence (Q14765 whole entry): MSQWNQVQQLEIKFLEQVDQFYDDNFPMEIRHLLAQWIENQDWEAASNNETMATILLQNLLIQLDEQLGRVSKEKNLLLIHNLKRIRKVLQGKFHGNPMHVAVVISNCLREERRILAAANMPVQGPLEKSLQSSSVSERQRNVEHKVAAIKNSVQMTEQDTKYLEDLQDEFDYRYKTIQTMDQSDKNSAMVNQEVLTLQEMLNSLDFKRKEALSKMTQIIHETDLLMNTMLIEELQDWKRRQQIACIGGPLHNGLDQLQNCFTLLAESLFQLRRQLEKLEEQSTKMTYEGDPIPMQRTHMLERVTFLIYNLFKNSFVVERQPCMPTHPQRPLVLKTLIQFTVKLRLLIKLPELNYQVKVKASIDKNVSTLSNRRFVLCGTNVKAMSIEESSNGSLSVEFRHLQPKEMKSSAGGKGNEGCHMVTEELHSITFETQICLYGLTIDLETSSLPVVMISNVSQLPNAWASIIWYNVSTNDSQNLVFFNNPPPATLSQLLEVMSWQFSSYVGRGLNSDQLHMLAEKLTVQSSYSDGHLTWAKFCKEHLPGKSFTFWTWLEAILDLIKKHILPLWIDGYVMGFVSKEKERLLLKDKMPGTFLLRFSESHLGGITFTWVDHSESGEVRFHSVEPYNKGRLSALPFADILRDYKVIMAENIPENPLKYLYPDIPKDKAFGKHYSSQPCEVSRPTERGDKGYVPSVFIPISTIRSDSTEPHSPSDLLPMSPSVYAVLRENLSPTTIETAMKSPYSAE
- testName: IL-12-induced STAT4 Tyr693 phosphorylation in NK-92 cells (Western blot)
- Type: cell-based
- Parameters: utilizing cellular lysates from the STAT4‐expressing natural killer cell line NK‐92; endogenous in cells; host or cells: NK-92 (DSMZ)
- conditions: 2 h, presence of 25% serum, read-out: IC 50, IL‐12‐induced STAT4 phosphorylation
pIC50: −log10 of the molar value.
attributeMeasured: pIC50

[
  {
    "molecule": "Cc1cc(-c2ccc(C(F)(F)P(=O)(OCOC(=O)C(C)(C)C)OCOC(=O)C(C)(C)C)c(F)c2)cs1 [Compound 9]",
    "tgt": "STAT4 (Homo sapiens, UniProt Q14765)",
    "observedValue": 4.11
  }
]

###

Each item that follows carries a reported IC50.
- tgt: STAT5b (Homo sapiens)
- Sequence (P51692 1-787): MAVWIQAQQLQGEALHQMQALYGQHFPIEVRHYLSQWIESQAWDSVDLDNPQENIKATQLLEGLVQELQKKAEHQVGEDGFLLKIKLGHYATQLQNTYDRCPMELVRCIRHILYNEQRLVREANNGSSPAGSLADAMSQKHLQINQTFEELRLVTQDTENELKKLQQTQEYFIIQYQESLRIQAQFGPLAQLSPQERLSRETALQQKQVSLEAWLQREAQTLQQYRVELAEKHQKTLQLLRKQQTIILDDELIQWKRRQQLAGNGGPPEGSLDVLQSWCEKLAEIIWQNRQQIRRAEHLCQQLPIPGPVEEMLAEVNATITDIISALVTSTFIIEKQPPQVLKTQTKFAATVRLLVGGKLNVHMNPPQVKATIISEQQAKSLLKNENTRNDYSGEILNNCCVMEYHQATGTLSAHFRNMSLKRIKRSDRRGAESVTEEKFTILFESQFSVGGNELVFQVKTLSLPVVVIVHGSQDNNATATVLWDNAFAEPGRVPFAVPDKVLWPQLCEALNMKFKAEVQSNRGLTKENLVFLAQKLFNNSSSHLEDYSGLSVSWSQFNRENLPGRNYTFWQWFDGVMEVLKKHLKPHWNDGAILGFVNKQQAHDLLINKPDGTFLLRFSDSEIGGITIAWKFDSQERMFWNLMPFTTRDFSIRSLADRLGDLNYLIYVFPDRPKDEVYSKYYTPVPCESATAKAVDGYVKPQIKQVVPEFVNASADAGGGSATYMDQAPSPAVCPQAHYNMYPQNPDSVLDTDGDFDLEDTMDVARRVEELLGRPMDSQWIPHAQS
- testName: Competitive fluorescence polarization (FP) assay, STAT5b SH2 domain
- Type: binding
- conditions: mean ± SD, n = 3
attributeMeasured: IC50 (µM)

[
  {
    "compound": "O=P(O)(O)Oc1ccc(-c2ccc3ccccc3c2)cc1",
    "measurementUnit": "µM",
    "observedValue": 109
  },
  {
    "compound": "O=P(O)(O)Oc1ccc(-c2ccccc2)cc1F",
    "measurementUnit": "µM",
    "observedValue": 91
  },
  {
    "compound": "Cc1cc(-c2ccc(C(F)(F)P(=O)(O)O)c(F)c2)cs1",
    "measurementUnit": "µM",
    "observedValue": 130
  },
  {
    "compound": "O=P(O)(O)Oc1ccc(-c2ccc3ccccc3c2)cc1F",
    "measurementUnit": "µM",
    "observedValue": 52
  },
  {
    "compound": "O=P(O)(O)Oc1ccc(-c2ccccc2)cc1 [Compound 1, para‐biphenyl phosphate]",
    "measurementUnit": "µM",
    "observedValue": 95
  }
]

###

Target or system STAT5a (Homo sapiens); recorded quantity Ki.

[
  {
    "compound": "O=P(O)(O)Oc1ccc(-c2ccccc2)cc1 [Compound 1, para‐biphenyl phosphate]",
    "tgt": "STAT5a (Homo sapiens)",
    "Ki (µM)": 22
  },
  {
    "compound": "O=P(O)(O)Oc1ccc(-c2ccc3ccccc3c2)cc1",
    "tgt": "STAT5a (Homo sapiens)",
    "Ki (µM)": 27
  },
  {
    "compound": "O=P(O)(O)Oc1ccc(-c2ccc3ccccc3c2)cc1F",
    "tgt": "STAT5a (Homo sapiens)",
    "Ki (µM)": 22
  },
  {
    "compound": "Cc1cc(-c2ccc(C(F)(F)P(=O)(O)O)c(F)c2)cs1",
    "tgt": "STAT5a (Homo sapiens)",
    "Ki (µM)": 39
  },
  {
    "compound": "O=P(O)(O)Oc1ccc(-c2ccccc2)cc1F",
    "tgt": "STAT5a (Homo sapiens)",
    "Ki (µM)": 28
  }
]

###

- tgt: STAT6 (Homo sapiens, UniProt P42226)
- Sequence (P42226 1-847): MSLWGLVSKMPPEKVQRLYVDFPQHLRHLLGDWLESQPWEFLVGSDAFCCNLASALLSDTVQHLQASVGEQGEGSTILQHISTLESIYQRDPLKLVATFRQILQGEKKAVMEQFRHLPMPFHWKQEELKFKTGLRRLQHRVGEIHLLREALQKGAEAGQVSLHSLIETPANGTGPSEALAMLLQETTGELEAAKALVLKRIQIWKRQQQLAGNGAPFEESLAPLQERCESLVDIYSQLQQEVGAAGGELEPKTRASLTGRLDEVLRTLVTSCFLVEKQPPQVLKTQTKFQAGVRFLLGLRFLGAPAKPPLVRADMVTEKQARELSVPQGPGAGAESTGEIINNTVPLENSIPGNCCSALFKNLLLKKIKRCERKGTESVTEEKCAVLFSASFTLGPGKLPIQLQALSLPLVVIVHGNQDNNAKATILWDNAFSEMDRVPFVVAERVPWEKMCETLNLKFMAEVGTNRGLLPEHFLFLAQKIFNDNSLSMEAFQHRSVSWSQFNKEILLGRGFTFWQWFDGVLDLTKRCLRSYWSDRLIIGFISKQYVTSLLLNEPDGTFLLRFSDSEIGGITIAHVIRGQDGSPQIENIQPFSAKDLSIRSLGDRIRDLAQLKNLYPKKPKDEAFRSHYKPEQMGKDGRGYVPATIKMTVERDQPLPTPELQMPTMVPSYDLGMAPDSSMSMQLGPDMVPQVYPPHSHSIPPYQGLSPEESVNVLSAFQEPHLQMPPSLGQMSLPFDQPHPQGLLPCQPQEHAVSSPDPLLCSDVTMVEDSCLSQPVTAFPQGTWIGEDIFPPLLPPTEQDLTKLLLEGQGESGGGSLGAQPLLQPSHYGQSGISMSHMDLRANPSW
Label Criterion met when IC50 is strictly below 30 µM; otherwise label Criterion not met.

[
  {
    "compound": "O=P(O)(O)Oc1ccc(-c2ccc3ccccc3c2)cc1F",
    "assignedLabel": "Criterion not met"
  },
  {
    "compound": "O=P(O)(O)Oc1ccc(-c2ccc3ccccc3c2)cc1",
    "assignedLabel": "Criterion met"
  },
  {
    "compound": "O=P(O)(O)Oc1ccc(-c2ccccc2)cc1F",
    "assignedLabel": "Criterion not met"
  },
  {
    "compound": "O=P(O)(O)Oc1ccc(-c2ccccc2)cc1 [Compound 1, para‐biphenyl phosphate]",
    "assignedLabel": "Criterion met"
  }
]

Values were extracted from paper PMC12087874.
